B1: C22orf15 (parent)
chain: RGRHEQSPTSRPRKVSSLPPRSC

- Variants of: B1
- protocol_description: protein stability index of a GFP-peptide fusion (GPS, HEK-293T) (PSI 1-6); higher = more stable;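 further: lentivirally expressed fusions sorted by FACS into six bins by GFP to DsRed ratio, PSI derived from sequencing read proportions per bin multiplied by bin number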
- reported_conditions: c terminus: native
reported_metric: protein stability index
Note: the reply should be a number with no unit written.

Example results:
Given the variant `R21V` , what is its reported protein stability index? 2.88

Record: `R21L` 3.37

***
Given the variant `C23V` , what is its reported protein stability index? 3.28

Record: `P20I` 2.72

Record: `K14Q` 4.04

Record: `P19L` 3.07

Record: `S16I` 1.98

Record: `S17K` 1.93

Record: `R3V` 2.05

Record: `S22D` 1.39

Record: `P20S` 1.99

Record: `R11Q` 3.32

Record: `R1Y` 3.26
